Where these numbers come from: patent US7625890B2

Each item that follows carries a reported solubility.
run_description: Solubility
Assay type: physicochemical
experimental_context: aqueous buffer; 50 mM phosphate buffer, pH 7.4
Counter-ions that a name gives are not always drawn.
Field format: number, assumed µM, no unit text.

// known answers, use as guide
{"columns": ["compound", "observed_measurement"],
 "data": [
  ["CCn1c(-c2nonc2N)nc2c(C#CC(C)(C)O)ncc(OC[C@@H]3CN(C)CCO3)c21", 34],
  ["CCN1CCO[C@H](COc2cnc(C#CC(C)(C)O)c3nc(-c4nonc4N)n(CC)c23)C1", 6],
  ["CCn1c(-c2nonc2N)nc2c(C#CC(C)(C)O)ncc(OCC3CNCC(C)O3)c21 (stereo in doubt) [Example 9, dihydrochloride]", 129]
]}

Next:
# get_value(readout='solubility', item= CCn1c(-c2nonc2N)nc2c(C#CC(C)(C)O)ncc(OC[C@@H]3CNCCO3)c21 )
154

* * *

run_description: Solubility
Format: physicochemical
experimental_context: aqueous buffer; 50 mM phosphate buffer, pH 7.4
Counter-ions that a name gives are not always drawn.
endpoint_label: solubility (µM)
Output spec: scalar in µM, unitless text.

{"columns": ["molecule", "endpoint_label", "observed_measurement"],
 "data": [
  ["CCn1c(-c2nonc2N)nc2c(C#CC(C)(C)O)ncc(OC[C@H]3CNCCO3)c21", "solubility", 188],
  ["CCn1c(-c2nonc2N)nc2c(C#CC(C)(C)O)ncc(OC[C@H]3CCCN(C)C3)c21 [Example 6, dihydrochloride]", "solubility", 44],
  ["CCn1c(-c2nonc2N)nc2c(C#CC(C)(C)O)ncc(OC[C@H]3CCCNC3)c21", "solubility", 210]
]}

Fill in: solubility of CCn1c(-c2nonc2N)nc2c(C#CC(C)(C)O)ncc(OCC3CCNC3)c21 (stereo not drawn) [Example 5, bis-trifluoroacetic acid salt] is ___
83

# repeat for CCn1c(-c2nonc2N)nc2c(C#CC(C)(C)O)ncc(OC[C@@H]3CNCCS3)c21 (single isomer, unassigned; enantiomer e1) [Example 3, dihydrochloride]
110

Another molecule to check: CCn1c(-c2nonc2N)nc2c(C#CC(C)(C)O)ncc(OC[C@@H]3CN(C)CCS3)c21 (single isomer, unassigned; enantiomer e1)
23
